# System Under Test: Mu-type opioid receptor (Homo sapiens) (UniProt P35372)
# Sequence (P35372 whole entry): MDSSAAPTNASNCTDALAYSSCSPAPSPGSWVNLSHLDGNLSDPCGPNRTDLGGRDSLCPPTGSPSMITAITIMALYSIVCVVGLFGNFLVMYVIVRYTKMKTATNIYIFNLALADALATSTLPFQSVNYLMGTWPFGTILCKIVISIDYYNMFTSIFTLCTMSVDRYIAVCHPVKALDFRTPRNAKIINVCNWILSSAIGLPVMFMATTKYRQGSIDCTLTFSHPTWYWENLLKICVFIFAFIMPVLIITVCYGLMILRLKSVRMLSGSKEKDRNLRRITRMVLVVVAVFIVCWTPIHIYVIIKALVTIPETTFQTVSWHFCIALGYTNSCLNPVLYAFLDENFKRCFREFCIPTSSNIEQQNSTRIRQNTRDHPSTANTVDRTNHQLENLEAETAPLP
# Measurement Setup: Compound concentration 10 µM
# Description: PDSP Primary Binding target: OPRM1 - Compounds are tested at 10 uM concentration, plate are incubated at room temperature in the dark for 90 minutes. Reaction are stopped by vacuum filtration onto 0.3% polyethyleneimine soaked filter mats using Filtermate harvester. Scintilation cocktail is then melted onto microwave-dried filters on a hot plate and the radio activity is counted in Microbia counter.

- Compound: "O=C(Cc1ccc(Cl)c(Cl)c1)N1CCCC[C@H]1CN1CCCC1"
  inhibition [%]: 49.6
- Compound: "Oc1ccc2c3c1O[C@H]1c4[nH]c5c(c4C[C@@]4(O)[C@@H](C2)N(CC2CC2)CC[C@]314)C[C@@]1(O)[C@H]2Cc3ccc(O)c4c3[C@@]1(CCN2CC1CC1)[C@H]5O4"
  inhibition [%]: 80.6
- Compound: "CCCCN1CCC(COC(=O)c2cc(Cl)c(N)c3c2OCCO3)CC1"
  inhibition [%]: 9.58
- Compound: "C/C(=N\\NC(=O)[C@@H]1C(=O)NC[C@H]1c1ccccc1)c1cccc(Br)c1"
  inhibition [%]: 50.1
- Compound: "CCN(CC)CCCCC1CCN(CC(=O)N2c3ccccc3C(=O)Nc3cccnc32)CC1"
  inhibition [%]: 10.4
- Compound: "CN1CCCC(n2nc(Cc3ccc(Cl)cc3)c3ccccc3c2=O)CC1 (stereo unspecified)"
  inhibition [%]: 29.4
